B1: GOLPH3 (parent)
chain: FAPLLDEQYDLATKRVRQLLDLDP

- Variants of: B1
- test: protein stability index of a GFP-peptide fusion (GPS, HEK-293T) (PSI 1-6); higher = more stable;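 also: lentivirally expressed fusions sorted by FACS into six bins by GFP to DsRed ratio, PSI derived from sequencing read proportions per bin multiplied by bin number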
- condition-context: c terminus: a fixed tail appended
experimental-readout: protein stability index
Reply briefly: the number, and no unit.

For orientation, consider the following solved cases.
{"mutant-name": "R17Q", "protein stability index": 2.77}
{"mutant-name": "V16D", "protein stability index": 2.02}
{"mutant-name": "L4W", "protein stability index": 2.28}
{"mutant-name": "Y9A", "protein stability index": 2.9}
{"mutant-name": "F1I", "protein stability index": 3.11}

Could you please provide reported protein stability index for T13K ? Thanks!
2.32

Could you please provide reported protein stability index for L5P ? Thanks!
2.21

Could you please provide reported protein stability index for L5G ? Thanks!
2.24

Could you please provide reported protein stability index for L20K ? Thanks!
2.59

Could you please provide reported protein stability index for P3K ? Thanks!
2.44

Could you please provide reported protein stability index for K14W ? Thanks!
2.28
